Literature-derived pIC50 for human ACC2 (Homo sapiens (Human), UniProt O00763) follows.
Please express pIC50 as -log10 of the molar concentration.

# count of solved cases: 5
INSERT INTO measurements (compound, measurement_type, obs_value) VALUES
  ('CC(=O)NC(C)Cc1ccc(C#Cc2ccc(OCC3CC3(F)F)cc2)cc1 (stereo not drawn)', 'pIC50', 7.30),
  ('CCCOc1ccc(C2CCN(c3ccc(C(C)C(=O)NCC)cc3)CC2)c(C)c1 (stereo not drawn)', 'pIC50', 6.08),
  ('CC(=O)NC(C)Cc1ccc(C#Cc2ccc(C(C)C)cc2)cc1 (stereo not drawn)', 'pIC50', 6.54),
  ('C[C@H](NC(=O)CO)c1ccc(C2CN(c3ccc(OCC4CC4)cc3)C2)cc1', 'pIC50', 5.79),
  ('Cc1ncsc1C(=O)N[C@@H](C)c1ccc(C2CN(c3ccc(OCC4CC4)cc3)C2)cc1', 'pIC50', 5.52);

Given the compound CCCc1ccc(C#Cc2ccc(C(C)C(=O)NCC)cc2)cc1 (stereo not drawn) and test system human ACC2 (Homo sapiens (Human), UniProt O00763), the measured pIC50 is 6.48

Result for CC(=O)NC(C)Cc1ccc(C#Cc2ccc(OC(F)(F)F)cc2)cc1 (stereo not drawn) , tested on human ACC2 (Homo sapiens (Human), UniProt O00763), pIC50: 5.82

Record CC(=O)NC(C)Cc1ccc(C#Cc2cc(C)c3c(c2)oc(=O)n3C)cc1 (stereo not drawn) ; system human ACC2 (Homo sapiens (Human), UniProt O00763); pIC50 = 5.40

The reported pIC50 value, human ACC2 (Homo sapiens (Human), UniProt O00763), for CCNC(=O)C(C)c1ccc(C#Cc2ccc(OCCC(F)(F)F)cc2)cc1 (stereo not drawn) reads 6.96
